B1: LINE1-mini (parent)
chain: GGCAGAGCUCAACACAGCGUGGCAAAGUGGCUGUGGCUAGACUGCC

Variants of: B1
test_protocol: self-cleavage, relative activity (ratio to wild type); higher = more cleavage; in vitro, sequencing; the parent is a self-cleaving ribozyme
Bucketed by reported self-cleavage, buckets being bucket A (below 0.08), bucket B (0.08 to below 0.2), bucket C (0.2 or more)

{"seq_string": "GGCAGAGCUCAACACAGCGUGGCGGAGUGGCUGUGGCUAGACUGCC", "assigned_class": "bucket C"}
{"seq_string": "GGCAGAGCUCAACACAGCGUGGCAAAGUGACUGUGGAUAGACUGCC", "assigned_class": "bucket A"}
{"seq_string": "GUCAGAGCUCAACACAGCGUGGCAAAGUGGCUUUGGCUAGACUGCC", "assigned_class": "bucket A"}
{"seq_string": "GGUAGAGCUCAACACAGCGUGGCAAAGUUGCUGUGGCUAGACUGCC", "assigned_class": "bucket C"}
{"seq_string": "GGCAGAGUUCAACACAGCGUGGCAAAGUGGCUGUCGCUAGACUGCC", "assigned_class": "bucket B"}
{"seq_string": "GGCAGAGCUCAACACAGCGUGGCAAAGUGGCGGUGGCUUGACUGCC", "assigned_class": "bucket B"}
{"seq_string": "GGCAGAGCUCAACACAGCGUGGCAAACUGGCUGUGGCUUGACUGCC", "assigned_class": "bucket C"}
{"seq_string": "GGCAGAGCUCAACACAGCGUGGCAAAUAGGCUGUGGCUAGACUGCC", "assigned_class": "bucket C"}
{"seq_string": "GGCAGAGCUCAACACAGCGUGGCAAAGUGGCUAUGGCUAGACUGCU", "assigned_class": "bucket B"}
{"seq_string": "GGCAGAGCUCAACACAGCGUGACAAAGUGACUGUGGCUAGACUGCC", "assigned_class": "bucket C"}
{"seq_string": "GGCAGAGCUCAACAGAGCGUGGCAAAGGGGCUGUGGCUAGACUGCC", "assigned_class": "bucket A"}
{"seq_string": "GGCAGAACUCAACACAGCUUGGCAAAGUGGCUGUGGCUAGACUGCC", "assigned_class": "bucket B"}
{"seq_string": "GGCAGAGCUCAAUACAGCGUGGCAACGUGGCUGUGGCUAGACUGCC", "assigned_class": "bucket C"}
{"seq_string": "GGCAGAGCUCAACACAGCGUGGCAAGGUGGGUGUGGCUAGACUGCC", "assigned_class": "bucket A"}
{"seq_string": "GGCAGAGCUCAACACAGCGUGGGAAAGUGGCUGUGGCUAGACUGCC", "assigned_class": "bucket C"}
{"seq_string": "GGCAGAGGUGAACACAGCGUGGCAAAGUGGCUGUGGCUAGACUGCC", "assigned_class": "bucket A"}
{"seq_string": "GGCAGAGCUCAACACAGCGUGGCAAAGUGGCUGUGGCAAGAGUGCC", "assigned_class": "bucket A"}
{"seq_string": "GGCAGAGCUCACCACAGCGUGGCAAAAUGGCUGUGGCUAGACUGCC", "assigned_class": "bucket A"}
{"seq_string": "GGCAGAGCUCAACCCAGCGUGGCAUAGUGGCUGUGGCUAGACUGCC", "assigned_class": "bucket B"}
{"seq_string": "GGCAGAGCUCAACACAGAGUGGCAAAGUGGCUGAGGCUAGACUGCC", "assigned_class": "bucket A"}
{"seq_string": "GGCAGAGCUCUACACAGCGUGGCAAAGUGGCUGUGGCUAGACUGCC", "assigned_class": "bucket B"}
{"seq_string": "GGCAGAGCUCAACACAGCCUUGCAAAGUGGCUGUGGCUAGACUGCC", "assigned_class": "bucket C"}
{"seq_string": "GGCAUAGCUCAACACAGCGUGGCAAAGUGGCUGUGUCUAGACUGCC", "assigned_class": "bucket C"}
{"seq_string": "GGCAGAGCUCAGCACAGCGUGGCAAAGUGGCUGGGGCUAGACUGCC", "assigned_class": "bucket A"}
{"seq_string": "GGCAGAGCUCAACACAGCGUGGCAACGUGGCUGUGGCUAGACUGCC", "assigned_class": "bucket C"}
{"seq_string": "GGCAGAGCUCAACACCGAGUGGCAAAGUGGCUGUGGCUAGACUGCC", "assigned_class": "bucket A"}
{"seq_string": "GGCAGAGCUCAACACAGCGUGGCAAAAUGGCUGUGGCUAGGCUGCC", "assigned_class": "bucket C"}
{"seq_string": "GACGGAGCUCAACACAGCGUGGCAAAGUGGCUGUGGCUAGACUGCC", "assigned_class": "bucket C"}
{"seq_string": "GGCAGAGCUCAACUCAGCGUGGCAAAGUGGCUGAGGCUAGACUGCC", "assigned_class": "bucket C"}
{"seq_string": "GGAAGAGCUCAACACAGCGUGGCAAAGUGGCUGUGGCUAGACUGCU", "assigned_class": "bucket C"}
{"seq_string": "GGCAGAGCUCAAAACAGCGUGGGAAAGUGGCUGUGGCUAGACUGCC", "assigned_class": "bucket B"}
{"seq_string": "GUCAGAGCUCAACACAGCGUGGCAAAGUGCCUGUGGCUAGACUGCC", "assigned_class": "bucket B"}
{"seq_string": "GGCAGAGCUCAACACAGCUUGGCAAAGUGCCUGUGGCUAGACUGCC", "assigned_class": "bucket C"}
{"seq_string": "GGCAGAGCUCAACACACCGUGGGAAAGUGGCUGUGGCUAGACUGCC", "assigned_class": "bucket C"}
{"seq_string": "GGCAGUGCUCAACACAGCUUGGCAAAGUGGCUGUGGCUAGACUGCC", "assigned_class": "bucket C"}
{"seq_string": "GGCAGAGCUCAACACAGCGUGCCCAAGUGGCUGUGGCUAGACUGCC", "assigned_class": "bucket C"}
{"seq_string": "GGCGGAGCUCAACACGGCGUGGCAAAGUGGCUGUGGCUAGACUGCC", "assigned_class": "bucket B"}
{"seq_string": "GGCAGAGCUCAACACACCGUGGCAAAGUGGCUGCGGCUAGACUGCC", "assigned_class": "bucket B"}
{"seq_string": "GGCAGAGCUCAACACAGCGUGGCAAAGUGGCUGUGGUUAGAAUGCC", "assigned_class": "bucket B"}
{"seq_string": "GGCGGAGCUCAACACAGCGGGGCAAAGUGGCUGUGGCUAGACUGCC", "assigned_class": "bucket C"}
{"seq_string": "GGCAGAGCUCAAUACAGCGUGGCAAAGUGGCUGUGUCUAGACUGCC", "assigned_class": "bucket B"}
{"seq_string": "GGCAGAGCUCAACACAACGUGGCAAAGUGGCUGGGGCUAGACUGCC", "assigned_class": "bucket A"}
{"seq_string": "AGCAGAGCUCAACACAGGGUGGCAAAGUGGCUGUGGCUAGACUGCC", "assigned_class": "bucket C"}
{"seq_string": "GGCAGAGCUCAACUCAGCGUGGCAAAGUGGCUGUGGCAAGACUGCC", "assigned_class": "bucket C"}
{"seq_string": "GGCAGAGCUCAACCCAGCGUGGCAAAGUGGCAGUGGCUAGACUGCC", "assigned_class": "bucket A"}
{"seq_string": "GGCACAGCUCAACACAGCGUGGCAAAGUGGCUGUGGCUAGUCUGCC", "assigned_class": "bucket B"}
{"seq_string": "GGCAGAGCUCAACACAGAGUGGCAAAGUGGCGGUGGCUAGACUGCC", "assigned_class": "bucket A"}
{"seq_string": "GGCAGAGCUCAACACAGCGUGGCAAAGUGGCUGUGGUUUGACUGCC", "assigned_class": "bucket A"}
{"seq_string": "GGCAGGGCUCAACACAGCGUGGCAAAGUGGCUGUAGCUAGACUGCC", "assigned_class": "bucket A"}
{"seq_string": "GGCAGAGCUCAACACAAUGUGGCAAAGUGGCUGUGGCUAGACUGCC", "assigned_class": "bucket B"}
{"seq_string": "GGCAGAGCUCAAGACAGCCUGGCAAAGUGGCUGUGGCUAGACUGCC", "assigned_class": "bucket A"}
{"seq_string": "GGCAGAGCUCAACACAGCGUGGCAGAGUGGCUGCGGCUAGACUGCC", "assigned_class": "bucket A"}
{"seq_string": "GGCAGAGCUCAACACAGCGUGAAAAAGUGGCUGUGGCUAGACUGCC", "assigned_class": "bucket C"}
{"seq_string": "GGCAGAGCUCAACACAGCUUGGCAAAGUGGCUGUGGCUGGACUGCC", "assigned_class": "bucket A"}
{"seq_string": "GGCAGAGCUCAACACAGCGUGGCAAGGUGGCUGUGGCUUGACUGCC", "assigned_class": "bucket C"}
{"seq_string": "AGCAGAGCUCAACACAGCGUGGCAAAGUGUCUGUGGCUAGACUGCC", "assigned_class": "bucket C"}
{"seq_string": "GGCAGAGCUCAACACAGCGUCGCAAACUGGCUGUGGCUAGACUGCC", "assigned_class": "bucket C"}
{"seq_string": "GGCAGAGGUCAACACAGCGUGGCAAAGUGGCUGUGGCUAAACUGCC", "assigned_class": "bucket B"}
{"seq_string": "GGCAGAGCUCCACACAGCGUGGCAAAGUGGCUGUGGCUACACUGCC", "assigned_class": "bucket A"}
{"seq_string": "GGCAGAGCUCAACACAGCGUGGCAAAGUUGCUGUGGCUAGAGUGCC", "assigned_class": "bucket A"}
{"seq_string": "GGCAGAGCUCAACACAUCGUGGCAAAGUGGCUGUGGCAAGACUGCC", "assigned_class": "bucket B"}
{"seq_string": "GGCAAAGCUCAACACAGCGUGGCAAAGUGGCUGUGGCUAGACUGUC", "assigned_class": "bucket B"}
{"seq_string": "GGCAGAGCUCACCACAGCGUGGCAAAGUGACUGUGGCUAGACUGCC", "assigned_class": "bucket A"}
{"seq_string": "GGCCGAGCUCAACACAGCGUGGCAAAUUGGCUGUGGCUAGACUGCC", "assigned_class": "bucket A"}
